Test system: APEC serotype O78
Conditions: efficacy trial, oral
endpoint_label: Mean APEC load, Heart (Log CFU/g tissues)
The answer is to be given in Log CFU/g tissues; state only the numeric part.

Below, each entry is followed by its recorded Mean APEC load, Heart result.
INSERT INTO assay_data (compound, system, endpoint_label, measured_result) VALUES
  ('CC(=O)OC(C(Br)C(=O)c1ccc([N+](=O)[O-])cc1)C(Cl)(Cl)Cl (stereo not drawn)', 'APEC serotype O78', 'Mean APEC load, Heart', 3.9),
  ('COc1ccc(CNCc2cccc(C(F)(F)F)c2)cc1OCC(O)CN1CCCC1 (stereo not drawn)', 'APEC serotype O78', 'Mean APEC load, Heart', 2.7),
  ('COc1cc(CNCCc2ccc3ccccc3c2)ccc1OCC(O)CN1CCCC1 (stereo not drawn)', 'APEC serotype O78', 'Mean APEC load, Heart', 4.1),
  ('CCN1/C(=C/c2ccc3ccccc3[n+]2CC)C=Cc2ccccc21', 'APEC serotype O78', 'Mean APEC load, Heart', 5.9),
  ('COc1cc(CNCCc2ccc(C)cc2)ccc1OCC(O)CN1CCCC1 (stereo not drawn)', 'APEC serotype O78', 'Mean APEC load, Heart', 7.0);

Kindly consider the entry below.
Param item = CC1CCCN(CCC(=O)c2ccc(Br)cc2)C1 (stereo not drawn) ; retrieve measured Mean APEC load, Heart.
6.8

###

Listed compounds paired with reported % reduction in severity, Air sacs lesions
Test system: APEC serotype O78
Conditions: efficacy trial, oral; vs PC
# unit: % | format: bare number

Completed entries (count: 5):
INSERT INTO assay_data (compound, measured_result) VALUES
  ('COc1cc(CNCCc2ccc(C)cc2)ccc1OCC(O)CN1CCCC1 (stereo not drawn) [GI-3]', '−29.4'),
  ('CCN1/C(=C/c2ccc3ccccc3[n+]2CC)C=Cc2ccccc21 [GI-9]', '−88.2'),
  ('COc1ccc(CNCc2cccc(C(F)(F)F)c2)cc1OCC(O)CN1CCCC1 (stereo not drawn) [GI-7]', 52.9),
  ('COc1cc(CNCCc2ccc3ccccc3c2)ccc1OCC(O)CN1CCCC1 (stereo not drawn) [GI-2]', 17.7),
  ('CC(=O)OC(C(Br)C(=O)c1ccc([N+](=O)[O-])cc1)C(Cl)(Cl)Cl (stereo not drawn) [GI-10]', '−17.6');

Now for a further compound.
Find the recorded % reduction in severity, Air sacs lesions belonging to CC1CCCN(CCC(=O)c2ccc(Br)cc2)C1 (stereo not drawn) [GI-1] and report it.
−5.9

###

Test system: APEC serotype O78
Conditions: efficacy trial, oral; vs PC
# binarize log reduction in APEC load, Lung: threshold -0.9 Log CFU/g tissues inclusive, high side YES, low side NO

Some solved cases for reference:
INSERT INTO assay_data (compound, class_assignment) VALUES
  ('COc1cc(CNCCc2ccc(C)cc2)ccc1OCC(O)CN1CCCC1 (stereo not drawn) [GI-3]', 'NO'),
  ('COc1ccc(CNCc2cccc(C(F)(F)F)c2)cc1OCC(O)CN1CCCC1 (stereo not drawn) [GI-7]', 'YES'),
  ('COc1cc(CNCCc2ccc3ccccc3c2)ccc1OCC(O)CN1CCCC1 (stereo not drawn) [GI-2]', 'YES'),
  ('CC1CCCN(CCC(=O)c2ccc(Br)cc2)C1 (stereo not drawn) [GI-1]', 'NO');

Tell me whether log reduction in APEC load, Lung is at least -0.9 Log CFU/g tissues here: CC(=O)OC(C(Br)C(=O)c1ccc([N+](=O)[O-])cc1)C(Cl)(Cl)Cl (stereo not drawn) [GI-10]
YES
